Target Entity: T1, monkey MSR1 extracellular domain expressed with a N-terminal hexahistidine-myc-myc tag (HMM-mfMSR1) (monkey (Macaca fascicularis))
T1 chain: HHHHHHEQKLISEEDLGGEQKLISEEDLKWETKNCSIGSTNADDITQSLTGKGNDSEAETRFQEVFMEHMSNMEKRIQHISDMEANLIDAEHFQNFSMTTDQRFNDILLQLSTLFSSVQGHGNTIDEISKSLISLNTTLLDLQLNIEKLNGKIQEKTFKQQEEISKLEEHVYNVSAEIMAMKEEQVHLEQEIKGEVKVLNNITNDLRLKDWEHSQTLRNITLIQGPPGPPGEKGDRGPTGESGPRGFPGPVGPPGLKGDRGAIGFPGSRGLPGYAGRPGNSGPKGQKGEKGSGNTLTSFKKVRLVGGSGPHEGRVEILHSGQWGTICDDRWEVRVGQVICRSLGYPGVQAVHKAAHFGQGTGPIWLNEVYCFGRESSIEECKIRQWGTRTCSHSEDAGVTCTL
Assay Details: SPR Biacore, 25 C, antibody captured;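 also: rates from 1:1 fit with mass transport limitation of real-time sensorgrams, HEPES-buffered saline with EDTA and Tween-20 at pH 7.4, KD and t½ derived from the kinetic rates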
Each entry below carries its reported kon.
// units = M⁻¹ s⁻¹; emit number, no label

[[record]]
binder = "H1H27747P-N297Q (antibody, V domains shown, Human IgG1 Fc with N297Q point mutation) VH: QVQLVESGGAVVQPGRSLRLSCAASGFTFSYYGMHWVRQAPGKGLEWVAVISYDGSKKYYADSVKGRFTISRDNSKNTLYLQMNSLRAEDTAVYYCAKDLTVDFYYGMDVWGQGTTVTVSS VL: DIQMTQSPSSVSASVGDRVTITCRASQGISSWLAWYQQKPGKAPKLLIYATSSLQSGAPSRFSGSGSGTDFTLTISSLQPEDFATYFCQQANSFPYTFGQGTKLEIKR"
result_number = 231000

[[record]]
binder = "H1H21234N-N297Q (antibody, V domains shown, Human IgG1 Fc with N297Q point mutation (EU numbering)) VH: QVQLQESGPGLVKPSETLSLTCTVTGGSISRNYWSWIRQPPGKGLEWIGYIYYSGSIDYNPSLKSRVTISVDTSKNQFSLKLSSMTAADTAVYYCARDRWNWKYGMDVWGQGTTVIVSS VL: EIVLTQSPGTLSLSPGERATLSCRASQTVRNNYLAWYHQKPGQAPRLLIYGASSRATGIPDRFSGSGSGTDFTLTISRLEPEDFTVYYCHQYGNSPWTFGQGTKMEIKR"
result_number = 408000

[[record]]
binder = "H1H27739P-N297Q (antibody, V domains shown, Human IgG1 Fc with N297Q point mutation) VH: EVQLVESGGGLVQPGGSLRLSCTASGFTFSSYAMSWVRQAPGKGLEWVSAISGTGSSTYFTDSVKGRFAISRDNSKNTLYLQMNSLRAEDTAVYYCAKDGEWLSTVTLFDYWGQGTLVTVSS VL: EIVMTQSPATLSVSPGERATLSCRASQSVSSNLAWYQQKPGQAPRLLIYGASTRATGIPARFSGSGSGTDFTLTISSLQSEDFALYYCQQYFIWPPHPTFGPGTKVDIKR"
result_number = 352000

[[record]]
binder = "H1H27734P-N297Q (antibody, V domains shown, Human IgG1 Fc with N297Q point mutation) VH: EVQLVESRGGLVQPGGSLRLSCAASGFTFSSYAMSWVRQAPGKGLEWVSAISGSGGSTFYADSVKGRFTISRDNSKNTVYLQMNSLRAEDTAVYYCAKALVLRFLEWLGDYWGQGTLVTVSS VL: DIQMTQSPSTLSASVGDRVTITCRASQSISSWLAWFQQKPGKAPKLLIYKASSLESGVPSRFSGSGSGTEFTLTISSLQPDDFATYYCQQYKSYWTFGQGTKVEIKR"
result_number = 423000

[[record]]
binder = "H1H27754P-N297Q (antibody, V domains shown, Human IgG1 Fc with N297Q point mutation) VH: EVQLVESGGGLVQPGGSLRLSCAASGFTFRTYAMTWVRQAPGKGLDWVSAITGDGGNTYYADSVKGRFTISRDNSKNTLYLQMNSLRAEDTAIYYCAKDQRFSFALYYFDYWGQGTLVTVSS VL: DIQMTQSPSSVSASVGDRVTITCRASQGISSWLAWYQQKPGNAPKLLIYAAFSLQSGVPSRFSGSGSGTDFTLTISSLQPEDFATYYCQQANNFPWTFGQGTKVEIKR"
result_number = 235000

[[record]]
binder = "H1H27729P-N297Q (antibody, V domains shown, Human IgG1 Fc with N297Q point mutation) VH: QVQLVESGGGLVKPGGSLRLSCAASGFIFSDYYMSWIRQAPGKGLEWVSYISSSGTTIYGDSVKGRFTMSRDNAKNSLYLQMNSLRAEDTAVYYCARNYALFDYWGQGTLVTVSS VL: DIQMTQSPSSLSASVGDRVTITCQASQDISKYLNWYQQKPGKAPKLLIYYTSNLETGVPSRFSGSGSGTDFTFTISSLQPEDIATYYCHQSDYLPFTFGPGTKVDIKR"
result_number = 269000


API: the following record is the query input.
Query: # input binder: H1H27731P-N297Q (antibody, V domains shown, Human IgG1 Fc with N297Q point mutation) VH: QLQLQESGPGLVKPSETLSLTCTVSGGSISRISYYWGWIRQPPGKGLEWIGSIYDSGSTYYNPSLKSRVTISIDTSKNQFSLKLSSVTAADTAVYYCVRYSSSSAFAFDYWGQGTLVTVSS VL: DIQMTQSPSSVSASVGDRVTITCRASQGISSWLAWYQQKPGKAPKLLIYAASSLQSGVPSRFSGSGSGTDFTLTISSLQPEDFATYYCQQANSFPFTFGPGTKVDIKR ; wanted: its kon
Reply: 98200

These measurements were taken from patent US20190367631A1.
